test: chemical genetic growth profiling, strain panel (AID 1159580);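 further: tested at 20 µM; growth read once vehicle control cultures reached saturation at 30 °C; 1 = growth at the plate median or of vehicle wells; lower values mean less growth of the strain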; details: S. cerevisiae deletion strains, growth OD, locus YJL115W, strain asf1, stronger effect = lower value
In all, about 5,500 compounds went through this assay and about 2,000 (36%) were called active. Roughly 18% stayed inconclusive and do not appear here. This is one part of the list.
Can you tell me normalized growth for the items I'm about to list?
Reply with the value as a number alone.

The value of normalized growth measured for the compound CC(=O)/C=C\[C@@H]1[C@@]2(C)CCCC(C)(C)C2CC[C@@]1(C)O (stereo partly drawn) turned out to be 0.96

The value of normalized growth measured for the compound C[C@@H]1CC[C@H]2[C@@H](C)C(O)O[C@@H]3O[C@@]4(C)CC[C@@H]1[C@]32OO4 (stereo partly drawn) turned out to be 0.443

The value of normalized growth measured for the compound CCN1C[C@]2(OC(=O)c3ccccc3NC(C)=O)CCC(OC)[C@]34C1[C@H](CC23)[C@@]1(O)CC(OC)[C@H]2CC4C1(O)[C@H]2OC (stereo partly drawn) turned out to be 0.973

The value of normalized growth measured for the compound COC(=O)C[C@H]1C(C)(C)C(=O)[C@@H]2CC3C4=CC(=O)O[C@@H](c5ccoc5)[C@]4(C)CCC3[C@@]1(C)C2=O (stereo partly drawn) turned out to be 0.964

The value of normalized growth measured for the compound CC1(C)CC[C@]2(C)CC[C@]3(C)C(=CCC4[C@@]5(C)CC[C@H](O)C(C)(C)C5CC[C@]43C)C2C1 (stereo partly drawn) turned out to be 0.985

The value of normalized growth measured for the compound Cc1cc(-n2c(=O)[nH]c(=O)n(C)c2=O)ccc1Oc1ccc(SC(F)(F)F)cc1 turned out to be 0.926

The value of normalized growth measured for the compound C/C=C(/C)C(=O)OC1CCC2(C)C3CCC4C5(O)CC(O)C6(O)C(CN7CC(C)CCC7C6(C)O)C5(O)CC42OC13O (stereo not drawn) turned out to be 0.985

The value of normalized growth measured for the compound C#C[C@]1(OC(C)=O)CCC2C3CCC4=C/C(=N\O)CCC4C3CC[C@@]21CC (stereo partly drawn) turned out to be 1.01

The value of normalized growth measured for the compound CC(C)(Oc1ccc(CCNC(=O)c2ccc(Cl)cc2)cc1)C(=O)O turned out to be 0.978

The value of normalized growth measured for the compound C#C[C@]1(O)CCC2C3CCC4=C(CCC(=O)C4)C3CC[C@@]21C (stereo partly drawn) turned out to be 0.975

The value of normalized growth measured for the compound COc1cc(N)c(Cl)cc1C(=O)NC1CCN(Cc2ccccc2)CC1 turned out to be 0.987

The value of normalized growth measured for the compound COc1cc(C(=O)O[C@H]2CC[C@@]3(C)[C@@H]4CC[C@H]5[C@]6(O)C[C@H](O)[C@@]7(O)[C@@H](CN8C[C@@H](C)CC[C@H]8[C@@]7(C)O)[C@]6(O)C[C@@]53O[C@]24O)cc(OC)c1OC turned out to be 1

The value of normalized growth measured for the compound NNC(=O)c1ccncc1 turned out to be 1.01

The value of normalized growth measured for the compound CCOP(=S)(OCC)Oc1nc(Cl)c(Cl)cc1Cl turned out to be 0.971

The value of normalized growth measured for the compound COc1cccc2c1C(=O)c1c(O)c3c(c(O)c1C2=O)C[C@@](O)(C(=O)CO)C[C@@H]3O[C@H]1C[C@H](N)[C@@H](O)[C@H](C)O1 turned out to be 0.682

The value of normalized growth measured for the compound C[C@@H]1CC[C@H]2[C@@H](C)C(=O)O[C@@H]3O[C@@]4(C)CC[C@@H]1[C@]32OO4 turned out to be 0.861

The value of normalized growth measured for the compound OC(CCN1CCCCC1)(c1ccccc1)C1CC2C=CC1C2 (stereo not drawn) turned out to be 0.984

The value of normalized growth measured for the compound Cc1ccnc(NS(=O)(=O)c2ccc(N)cc2)n1 turned out to be 0.992
